# protocol-details: Solubility screening in solvents (Example 2)
# Assay type: physicochemical
# experimental-setup: organic solvent or mixture, thermodynamic from solid; Dimethyl sulfoxide (DMSO); 12 h room temperature; read-out: Compound 1 Solubility
reported-endpoint: solubility at 12 h

compound Cc1c(Cc2ccc3ccccc3n2)c2cc(F)ccc2n1CC(=O)O [Compound 1] , solubility at 12 h observed: 5500 to 6000 µg/mL

====

# protocol-details: Solubility screening in solvents (Example 2)
# Type: physicochemical
# experimental-setup: aqueous with cosolvent or surfactant or cyclodextrin, thermodynamic from solid; Sodium dodecyl sulfate (2% w/v); 12 h room temperature; read-out: Compound 1 Solubility
reported-endpoint: solubility at 12 h

molecule Cc1c(Cc2ccc3ccccc3n2)c2cc(F)ccc2n1CC(=O)O , solubility at 12 h observed: < 500 µg/mL
